- Study Target: ENaC (Epithelial Sodium Channel) (Mus musculus, UniProt Q61180+Q9WU38+Q9WU39)
- Construct: Mouse kidney M-1 cells were cultivated in DMEM containing 5% FCS and 5 μM dexamethasone; endogenous in cells
- Sequence (Q61180 1-699): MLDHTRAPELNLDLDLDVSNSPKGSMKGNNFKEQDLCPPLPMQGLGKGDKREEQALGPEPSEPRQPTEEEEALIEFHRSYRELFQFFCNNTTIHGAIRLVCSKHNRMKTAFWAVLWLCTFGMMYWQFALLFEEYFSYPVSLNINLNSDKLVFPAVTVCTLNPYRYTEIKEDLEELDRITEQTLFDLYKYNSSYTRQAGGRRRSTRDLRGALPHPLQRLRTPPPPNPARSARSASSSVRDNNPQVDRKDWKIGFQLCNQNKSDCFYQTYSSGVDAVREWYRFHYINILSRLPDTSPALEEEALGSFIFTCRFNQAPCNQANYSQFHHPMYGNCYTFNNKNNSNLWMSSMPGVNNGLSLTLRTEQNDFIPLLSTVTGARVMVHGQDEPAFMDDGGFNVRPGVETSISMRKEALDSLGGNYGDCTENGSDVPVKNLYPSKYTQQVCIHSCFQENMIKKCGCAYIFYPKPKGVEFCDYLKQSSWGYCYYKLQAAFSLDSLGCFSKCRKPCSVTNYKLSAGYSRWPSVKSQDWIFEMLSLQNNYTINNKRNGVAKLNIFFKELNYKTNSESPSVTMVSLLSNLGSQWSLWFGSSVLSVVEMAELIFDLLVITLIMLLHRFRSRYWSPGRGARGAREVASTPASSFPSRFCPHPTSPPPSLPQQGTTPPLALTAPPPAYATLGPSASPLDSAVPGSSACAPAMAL
- Sequence (Q9WU38 1-638): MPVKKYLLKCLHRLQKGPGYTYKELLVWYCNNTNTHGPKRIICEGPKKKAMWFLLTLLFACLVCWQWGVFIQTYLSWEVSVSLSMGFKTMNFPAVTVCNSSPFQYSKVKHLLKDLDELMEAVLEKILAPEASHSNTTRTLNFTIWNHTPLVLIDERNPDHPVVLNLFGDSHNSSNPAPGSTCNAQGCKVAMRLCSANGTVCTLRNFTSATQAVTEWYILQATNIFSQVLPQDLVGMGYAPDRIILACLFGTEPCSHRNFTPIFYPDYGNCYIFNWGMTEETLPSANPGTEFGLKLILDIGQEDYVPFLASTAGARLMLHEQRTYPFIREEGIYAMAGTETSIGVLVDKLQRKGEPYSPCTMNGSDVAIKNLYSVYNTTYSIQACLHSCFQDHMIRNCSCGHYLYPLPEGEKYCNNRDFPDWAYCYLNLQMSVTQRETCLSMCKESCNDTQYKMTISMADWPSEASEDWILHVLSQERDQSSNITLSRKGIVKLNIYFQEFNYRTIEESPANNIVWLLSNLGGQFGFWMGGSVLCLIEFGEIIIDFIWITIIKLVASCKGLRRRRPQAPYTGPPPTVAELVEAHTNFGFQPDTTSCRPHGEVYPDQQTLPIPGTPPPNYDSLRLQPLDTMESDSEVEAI
- Sequence (Q9WU39 1-655): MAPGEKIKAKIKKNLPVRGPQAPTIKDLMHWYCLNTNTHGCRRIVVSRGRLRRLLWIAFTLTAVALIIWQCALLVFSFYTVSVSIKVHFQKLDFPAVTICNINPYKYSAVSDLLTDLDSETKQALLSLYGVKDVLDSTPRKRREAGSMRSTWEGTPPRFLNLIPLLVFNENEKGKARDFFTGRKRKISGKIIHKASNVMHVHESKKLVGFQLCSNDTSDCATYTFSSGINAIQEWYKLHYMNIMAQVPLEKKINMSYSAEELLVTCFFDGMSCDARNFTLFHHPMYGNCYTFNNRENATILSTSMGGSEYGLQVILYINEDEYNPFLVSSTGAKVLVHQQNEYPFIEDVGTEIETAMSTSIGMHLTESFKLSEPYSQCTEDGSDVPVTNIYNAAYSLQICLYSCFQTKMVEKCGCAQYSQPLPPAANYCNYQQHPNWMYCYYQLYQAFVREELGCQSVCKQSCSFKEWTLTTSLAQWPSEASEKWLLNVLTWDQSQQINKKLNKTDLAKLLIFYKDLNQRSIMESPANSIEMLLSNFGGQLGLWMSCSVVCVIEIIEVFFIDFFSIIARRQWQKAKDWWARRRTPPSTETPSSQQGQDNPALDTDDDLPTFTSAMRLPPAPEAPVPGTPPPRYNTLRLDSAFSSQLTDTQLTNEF
- Assay: Ussing Chamber assay (short circuit current, amiloride sensitive I_SC) in M-1 cells
- Measurement Conditions: Mouse kidney M-1 cells, apical application, 37° C.
pIC50: −log10 of the molar value.
Measure: pIC50

(P) CCCCCCN(C)C(=O)c1cc2c(cc1O[C@H]1COC[C@@H]1O)n(CCO)c(CNC(=O)c1nc(Cl)c(N)nc1N)[n+]2CC.O=C([O-])C(F)(F)F [Example 1.15]
(Q) CCn1c(CNC(=O)c2nc(Cl)c(N)nc2N)[n+](CC)c2ccc(OCC(=O)N(C)Cc3nc(C)ccc3[O-])cc21 [Example 3.02]
(R) CCNC(=O)c1cc2c(cc1OCC(=O)NC1CCN(C)CC1)n(CC)c(CNC(=O)c1nc(Cl)c(N)nc1N)[n+]2CC [Example 3.18]
// query Order the items by recorded pIC50; the first position goes to the largest value. Answer with the labels in sequence, matching the requested order.
// result Q, R, P

---

- Assay: Permeability in CALU-3 cells
- Format: in vitro ADME
- Measurement Conditions: human; apical-to-basal, CALU-3 monolayers, pH 7.4, 37° C., 10 μM compound
- Description: Permeability in CALU-3 Cells: Permeability measurements across polarized, confluent CALU-3 cell monolayers grown on permeable filter supports are used to provide information on the potential of a compound to pass the lung epithelium. Apparent permeability coefficients (Papp) of the compounds across the CALU-3 cell monolayers are measured (pH 7.4, 37° C.) in apical-to-basal (AB) and basal-to-apical (BA) transport direction. […]
Measure: Papp A→B at 90 min, 10 μM (×10⁻⁶ cm/s)

CC[n+]1c(CNC(=O)c2nc(Cl)c(N)nc2N)n(CCO)c2cc(OCC(=O)NCCC[n+]3cccc([O-])c3)ccc21.O=C([O-])C(F)(F)F [Example 1.01]: 0.04
CCn1c(CNC(=O)c2nc(Cl)c(N)nc2N)[n+](CC)c2ccc(OCCNC(=O)[C@H](C)NC)cc21.Cl.[Cl-] [Example 6.02]: 0.08
CC[n+]1c(CNC(=O)c2nc(Cl)c(N)nc2N)n(CC2CCCCC2)c2cc(OCCOP(=O)(O)CCC[N+](C)(C)C)ccc21 [Example 1.12]: 0.1
CCNC(=O)c1cc2c(cc1OCC(=O)NCCN(C)C)n(CC)c(CNC(=O)c1nc(Cl)c(N)nc1N)[n+]2CC.Cl.[Cl-] [Example 3.17]: 0.08
CCn1c(CNC(=O)c2nc(Cl)c(N)nc2N)[n+](CC)c2ccc(OCC(=O)N(Cc3nc(C)ccc3O)C[C@H](C)O)cc21.O=C([O-])C(F)(F)F [Example 3.05]: 0.2

(P) CCn1c(CNC(=O)c2nc(Cl)c(N)nc2N)[n+](CC)c2ccc(C(=O)NCCN(C)C)cc21.Cl.[Cl-] [Example 3.06]
(Q) CCOCCNC(=O)c1cc2c(cc1N1CCOCC1)n(CC)c(CNC(=O)c1nc(Cl)c(N)nc1N)[n+]2CC.[Cl-] [Example 5.01]
// query Field: lower Papp A→B at 90 min, 10 μM | Options: P / Q Please identify the chosen entry by its label.
// result P
(P: 0.02 ×10⁻⁶ cm/s, Q: 0.3 ×10⁻⁶ cm/s)

---

- Study Target: ENaC (Epithelial Sodium Channel) (Mus musculus, UniProt Q61180+Q9WU38+Q9WU39)
- Construct: Mouse kidney M-1 cells were cultivated in DMEM containing 5% FCS and 5 μM dexamethasone; endogenous in cells
- Sequence (Q61180 1-699): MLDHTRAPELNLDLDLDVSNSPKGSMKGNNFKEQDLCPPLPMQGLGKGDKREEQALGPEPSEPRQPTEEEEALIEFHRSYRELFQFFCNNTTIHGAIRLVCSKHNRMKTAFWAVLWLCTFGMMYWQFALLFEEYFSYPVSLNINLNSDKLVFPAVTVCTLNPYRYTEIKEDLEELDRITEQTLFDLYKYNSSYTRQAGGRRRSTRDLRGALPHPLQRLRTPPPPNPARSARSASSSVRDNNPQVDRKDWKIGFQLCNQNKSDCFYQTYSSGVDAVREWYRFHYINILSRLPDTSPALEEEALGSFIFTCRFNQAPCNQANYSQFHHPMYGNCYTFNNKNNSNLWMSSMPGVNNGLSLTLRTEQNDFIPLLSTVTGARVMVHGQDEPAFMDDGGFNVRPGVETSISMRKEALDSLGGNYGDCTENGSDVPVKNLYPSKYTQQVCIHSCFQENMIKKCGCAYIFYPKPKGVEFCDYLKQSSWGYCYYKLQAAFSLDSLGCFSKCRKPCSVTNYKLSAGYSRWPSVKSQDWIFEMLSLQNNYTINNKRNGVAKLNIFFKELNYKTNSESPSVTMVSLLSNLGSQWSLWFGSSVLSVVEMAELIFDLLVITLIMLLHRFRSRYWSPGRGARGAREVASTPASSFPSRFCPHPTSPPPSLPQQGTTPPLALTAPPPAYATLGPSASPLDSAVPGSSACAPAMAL
- Sequence (Q9WU38 1-638): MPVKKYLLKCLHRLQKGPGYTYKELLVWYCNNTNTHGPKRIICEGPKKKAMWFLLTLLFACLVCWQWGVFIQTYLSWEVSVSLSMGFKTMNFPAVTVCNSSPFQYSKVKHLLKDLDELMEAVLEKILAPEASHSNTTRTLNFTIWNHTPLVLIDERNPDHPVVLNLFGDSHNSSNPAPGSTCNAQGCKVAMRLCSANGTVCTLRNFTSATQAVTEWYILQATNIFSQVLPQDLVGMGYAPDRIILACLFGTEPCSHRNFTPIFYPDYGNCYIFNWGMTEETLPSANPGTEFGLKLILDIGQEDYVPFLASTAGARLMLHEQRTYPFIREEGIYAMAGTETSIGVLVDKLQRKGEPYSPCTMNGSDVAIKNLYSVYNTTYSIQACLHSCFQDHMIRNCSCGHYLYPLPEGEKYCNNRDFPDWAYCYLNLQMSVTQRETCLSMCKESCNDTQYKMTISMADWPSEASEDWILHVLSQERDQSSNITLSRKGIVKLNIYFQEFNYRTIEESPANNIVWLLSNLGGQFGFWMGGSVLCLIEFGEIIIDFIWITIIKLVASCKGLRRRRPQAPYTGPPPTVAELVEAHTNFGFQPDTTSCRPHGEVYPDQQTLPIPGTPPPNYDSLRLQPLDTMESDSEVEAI
- Sequence (Q9WU39 1-655): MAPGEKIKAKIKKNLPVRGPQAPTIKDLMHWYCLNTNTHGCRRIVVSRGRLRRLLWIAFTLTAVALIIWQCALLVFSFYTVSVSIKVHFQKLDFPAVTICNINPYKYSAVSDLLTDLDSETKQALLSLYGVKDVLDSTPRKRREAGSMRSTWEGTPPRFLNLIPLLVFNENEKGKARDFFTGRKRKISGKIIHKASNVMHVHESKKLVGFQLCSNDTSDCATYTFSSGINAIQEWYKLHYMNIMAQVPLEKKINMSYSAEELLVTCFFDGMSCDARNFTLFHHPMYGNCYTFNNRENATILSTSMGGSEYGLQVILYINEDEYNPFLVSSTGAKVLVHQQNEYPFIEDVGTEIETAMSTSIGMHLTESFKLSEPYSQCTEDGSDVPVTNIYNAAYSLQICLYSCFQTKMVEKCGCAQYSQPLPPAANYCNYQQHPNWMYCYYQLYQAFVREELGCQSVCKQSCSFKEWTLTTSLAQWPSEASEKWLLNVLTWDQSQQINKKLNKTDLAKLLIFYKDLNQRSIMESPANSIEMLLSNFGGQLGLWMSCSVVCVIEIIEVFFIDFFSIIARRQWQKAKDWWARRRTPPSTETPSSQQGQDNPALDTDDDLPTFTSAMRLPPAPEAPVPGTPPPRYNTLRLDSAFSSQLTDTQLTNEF
- Assay: Ussing Chamber assay (short circuit current, amiloride sensitive I_SC) in M-1 cells
- Measurement Conditions: Mouse kidney M-1 cells, apical application, 37° C.
- Protocol: The IC50 values of the example compounds given above were determined in the Ussing Chamber assay. Ussing Chamber: Mouse kidney M-1 cells were cultivated in DMEM containing 5% FCS and 5 μM dexamethasone for 10 to 12 days on polyester transwell filters. […] Short circuit currents (I_sc) were measured in the voltage-clamp mode with the software package Lab View for data acquisition and analysis. […] Results are expressed as inhibition in percent of the amiloride effect or as IC50.
Measure: IC50 (nM)

Before answering, review these 5 worked examples.
CCn1c(CNC(=O)c2nc(Cl)c(N)nc2N)[n+](CC)c2ccc(OCCNC(=O)CN3CCCC3)cc21 [Example 4.07]: 1
CCNC(=O)c1cc2c(cc1OCC(=O)NCCN(C)C)n(CC)c(CNC(=O)c1nc(Cl)c(N)nc1N)[n+]2CC.Cl.[Cl-] [Example 3.17]: 15
CCn1c(CNC(=O)c2nc(Cl)c(N)nc2N)[n+](CC)c2ccc(OCC(=O)Nc3cncc([O-])c3)cc21 [Example 3.03]: 0.3
CCCCCC(=O)N(CCOc1ccc2c(c1)n(C[C@H](C)O)c(CNC(=O)c1nc(Cl)c(N)nc1N)[n+]2CC)CP(C)(C)=O [Example 1.06]: 2
CCCCCOc1cc2c(cc1C(=O)N1CCN(C(=O)OC(C)(C)C)CC1)[n+](CC)c(CNC(=O)c1nc(Cl)c(N)nc1N)n2C[C@H](C)O [Example 1.10]: 52

(I) CCCCCCN1CCC(NC(=O)c2cc3c(cc2F)n(CC)c(CNC(=O)c2nc(Cl)c(N)nc2N)[n+]3CC)CC1.O=CO.O=C[O-] [Example 10.01]
(II) CCn1c(CNC(=O)c2nc(Cl)c(N)nc2N)[n+](CC)c2ccc(C(=O)NCCNC(C)=O)cc21 [Example 3.08]
// query Field: lower IC50 | Options: I / II Please identify the chosen entry by its label.
// result II
